All figures here come from a collection of fitness landscapes (doi:10.1016/j.celrep.2020.107928).

B1: Caulobacter ParB omega fusion; a variant is named by its letters at X, in order, B8GW30 (parent)
chain: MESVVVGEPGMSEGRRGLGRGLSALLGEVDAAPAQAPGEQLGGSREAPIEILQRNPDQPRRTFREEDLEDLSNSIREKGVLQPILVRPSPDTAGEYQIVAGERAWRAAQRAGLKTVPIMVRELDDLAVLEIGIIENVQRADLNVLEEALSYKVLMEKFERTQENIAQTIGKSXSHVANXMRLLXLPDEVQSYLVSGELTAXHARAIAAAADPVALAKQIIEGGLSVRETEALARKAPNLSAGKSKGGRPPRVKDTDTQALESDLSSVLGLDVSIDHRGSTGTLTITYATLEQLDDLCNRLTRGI

# Variants of: B1
# method.description: one-hybrid fitness for binding NBS DNA (the Noc-binding site; scaled: cognate 1, non-cognate 0); higher = stronger binding
# details: with NBS DNA site
The full ranking holds about 81,000 sequences; the median of “one-hybrid fitness for binding NBS DNA” is about -0.1, and the highest 2% start at about 0.36. For the sample, the highest values were picked, then their nearest neighbours and some sequences at random.
// reported one-hybrid fitness for binding NBS DNA for each item listed

Here's what some known entries look like.
mutation.string | one-hybrid fitness for binding NBS DNA
SHNY | ≤ 0.2
RYHT | 0.45
QRTV | 0.412

// query GET /values?readout=one-hybrid fitness for binding NBS DNA&item= AWHV
// result ≤ 0.2

// query GISW , same question.
// result ≤ 0.2

// query GSLV , same question.
// result ≤ 0.2

// query RPET , same question.
// result ≤ 0.2

// query SNER , same question.
// result ≤ 0.2
